Test system: Fusarium tucumaniae
Test details: Antifungal activity against Fusarium tucumaniae measured after 24 to 48 hrs by turbidimetry
Format: functional
Stated conditions: time 24-48 hrs
Result type: MIC

Here is how some compounds turned out for MIC.
1. COC(=O)Nc1nc2ccccc2[nH]1 | 4.09 µM
2. CC1(C)CC[C@]2(C)CC[C@]3(C)[C@H]4CC=C5[C@@H](CCC(=O)C5(C)C)[C@]4(C)CC[C@@]3(C)[C@@H]2C1 | 118 µM
3. CC1(C)CC[C@]2(C)CC[C@]3(C)[C@H]4CC=C5[C@@H](CC(C=O)=C(O)C5(C)C)[C@]4(C)CC[C@@]3(C)[C@@H]2C1 | 110 µM
4. CC1(C)CC[C@]2(C)CC[C@]3(C)[C@H]4C=CC5=C(C=C(Br)C(=O)C5(C)C)[C@]4(C)CC[C@@]3(C)[C@@H]2C1 | 100 µM
5. CC1(C)CC[C@]2(C)CC[C@]3(C)c4ccc5c(c4CC[C@@]3(C)[C@@H]2C1)C=C(Br)C(=O)C5(C)C | 51.7 µM

Query: MIC; subject: CC1(C)CC[C@]2(C)CC[C@]3(C)[C@@H](CC=O)[C@](C)([C@@H]4CC[C@H](O)C(C)(C)C4=O)CC[C@@]3(C)[C@@H]2C1
109 µM

Query: MIC; subject: CC1(C)CC[C@]2(C)CC[C@]3(C)[C@H]4CC=C5C(=CC6=NC(N)=N[C@]6(O)C5(C)C)[C@]4(C)CC[C@@]3(C)[C@@H]2C1
108 µM
